- TESTED ON: Serine/threonine-protein kinase pim-3 (Homo sapiens) (UniProt Q86V86)
- CONDITION DESCRIPTION: at 1 µM
- Description: GSK_PKIS: PIM3 mean inhibition at 1 uM [Nanosyn]
ASSAY READOUT: inhibition (%)
Give just the number in %; leave the unit off.

Previously resolved entries follow.
{"SMILES ENTRY": "Cc1cc(O)cc(C)c1/C=C/c1cncc(-c2nn[nH]n2)c1", "inhibition / %": -0.67}
{"SMILES ENTRY": "O=C(Nc1n[nH]c2nc(-c3ccco3)c(Br)cc12)C1CC1", "inhibition / %": -2.95}
{"SMILES ENTRY": "CCn1c(-c2nonc2N)nc2c(C#CC(C)(C)O)nc(CN3CCCC3)cc21", "inhibition / %": 0.7}
{"SMILES ENTRY": "NCc1ccc(-c2nc(-c3ccc(Cl)c(O)c3)c(-c3ccncc3)[nH]2)cc1", "inhibition / %": -0.73}

Notebook: CC(C)=Cc1cccc2c1/C(=N/Nc1ccc(S(N)(=O)=O)cc1)C(=O)N2 , inhibition read as 3.98

Notebook: CCn1c(-c2nonc2N)nc2c(C#CC(C)(C)O)nc(OC[C@@H](N)c3ccccc3)cc21 , inhibition read as 5.51

Notebook: CS(=O)(=O)CCNCc1ccc(-c2ccc3ncnc(Nc4ccc(OCc5cccc(F)c5)c(C(F)(F)F)c4)c3c2)o1 , inhibition read as 0.16
